Origin of values: patent US20230212549A1

Measured pIC50 Category (FACS) of individual entries
molecular target: T1, human fibroblast activation protein (FAP) on WI-38 fibroblasts (human, UniProt Q12884 1-760); test: competitive FACS, WI-38 cells, Cy5-labeled peptide as competitor
T1 construct: FAP-expressing human WI-38 fibroblasts (ECACC)
Bridge positions count the residues as written; N and C are the ends. Square brackets hold non-standard residues; d marks the D form. * marks the point of attachment. 3MeBn = 3-Methylbenzylidene (m-xylylene thioether bridge from α,α′-dibromo-m-xylene); N4Ac = 6-Carboxy-1,4,8,11-tetraazaundecane, an N4-chelator, NCCNCC(CNCCN)C(=O)*; Nle = CCCC[C@H](N)C(=O)O; Hexanoyl = CCCCCC(=O)*; AEEA = NCCOCCOCC(=O)O

BINDER	pIC50 Category (FACS)
N4Ac-[AEEA][Nle]CPPTEFC-OH (linker 3-9 via 3MeBn, also called 3BP-4228) [N4Ac-O2Oc-Nle-[Cys-(3MeBn)-Pro-Pro-Thr-Glu-Phe-Cys]-OH]	≤ 6 pIC50

Request: Need pIC50 Category (FACS) of Hexanoyl-CPPTQFCD-NH2 (linker 1-7 via tMeBn(H-O2Oc-PP), also called 3BP-3967) [Hex-[Cys-(tMeBn(H-O2Oc-PP))-Pro-Pro-Thr-Gln-Phe-Cys]-Asp-NH2] , thanks.
Response: > 8 pIC50
